Test: Binding affinity against opioid receptor delta 1 using [3H]naltrindole as radioligand in guinea pig brain membranes.
Recorded Ki values for a group of molecules are listed next.

NCc1ccc2c(c1)[C@@]13CCCC[C@H]1[C@@H](C2)N(CC1CCC1)CC3 | 410 nM
C#CCOc1ccc2c(c1)[C@@]13CCCC[C@H]1[C@@H](C2=O)N(CC#C)CC3 | > 10000 nM
NC(=O)c1ccc2c(c1)[C@@]13CCCC[C@H]1[C@@H](C2)N(CC1CCC1)CC3 | 4 nM
O=C1c2ccc(-c3nnn[nH]3)cc2[C@@]23CCCC[C@H]2[C@@H]1N(CC1CCC1)CC3 | 1800 nM
NC(=O)c1ccc2c(c1)[C@@]13CCCC[C@H]1[C@@H](C2)N(CC1CC1)CC3 | 1 nM
COCCN1CC[C@]23CCCC[C@H]2[C@H]1C(=O)c1ccc(O)cc13 | > 10000 nM

## Task Look up Ki for this molecule: `O=C1c2ccc(O)cc2[C@@]23CCCC[C@H]2[C@@H]1N(CCF)CC3`
## Result > 10000 nM

## Task Follow-up item: `O=C1c2ccc(O)cc2[C@@]23CCCC[C@H]2[C@@H]1N(Cc1ccc2ccccc2c1)CC3`
## Result > 10000 nM

## Task How about this molecule: `N#Cc1ccc2c(c1)[C@@]13CCCC[C@H]1[C@@H](C2=O)N(CC1CCC1)CC3`
## Result > 10000 nM
